Target: T1, 4H967-AA
T1 chain: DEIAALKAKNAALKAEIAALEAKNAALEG
Assay: two-hybrid library CCmax;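 further: natural log of median RNA to DNA barcode read ratio; higher means stronger binding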
Settings: mean of both orientations
experimental.readout: interaction score
Give a plain numeric answer without units written out.

Field interaction score (entry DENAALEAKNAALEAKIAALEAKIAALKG [4H1446-AA] ) reads -1.1

The binder listed as DEIAALKAKIAALEAENAALKAKIAALEG [4H797-AA] has a reported interaction score of -1.81

Please fill in: interaction score reported for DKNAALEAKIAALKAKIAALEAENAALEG [4H3427-AA] = -1.59

Reported interaction score ( DEIAALKAKNAALEAKNAALKAEIAALEG [4H953-AA] ) = -1.73

interaction score reading for DEIAALKAENAALKAEIAALKAKIAALEG [4H717-AA] : -0.559

# binder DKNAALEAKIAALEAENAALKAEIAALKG [4H3354-AA] ; its interaction score = -1.42

Sure, the documented interaction score for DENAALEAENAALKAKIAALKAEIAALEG [4H1257-AA] is -0.389
